Endpoint summary: pIC50, system: Autotaxin (Homo sapiens), multiple sources combined.
Numbers only, as −log10 of the molar value.

Would you please look over these solved cases?
N#Cc1cc(F)cc(COC(=O)N2C[C@@H]3CN(C(=O)c4ccc5[nH]nnc5c4)C[C@@H]3C2)c1	6.19
Cc1cc(OCc2n[nH]c(=O)n2C)c(C(C)C)cc1Cl	8.30
O=C(OCc1ccc(OC(F)(F)F)cn1)N1C[C@@H]2CN(C(=O)c3ccc4[nH]nnc4c3)C[C@H]2C1	8.15
CS(=O)(=O)c1cc(COC(=O)N2CCC3(CC2)CN(C(=O)c2ccc4[nH]c(=O)oc4c2)C3)cc(C(F)(F)F)c1	7.28
Cc1nnn(Cc2cc(C(F)(F)F)ccc2CCC(=O)N2CCC(CC[S+]([O-])c3ncc(S(N)(=O)=O)s3)CC2)n1 (stereo not drawn)	8.40
O=C(c1cc2cc(OC(F)(F)F)ccc2[nH]1)N1C[C@@H]2[C@H](C1)[C@H]1CN(C(=O)[C@@H]3CCc4[nH]nnc4C3)C[C@@H]21	7.94
Cc1cc(OCc2n[nH]c(=O)n2C)c(-c2cnco2)cc1Cl	6.31

Note: attention shifts to another entry.
Exercise: Name the reported pIC50 value associated with the compound O=C(CCc1ccc(OC(F)(F)F)cc1)N1C[C@@H]2CN(C(=O)c3ccc4[nH]nnc4n3)C[C@H]2C1
Solution: 7.77

* * *

Before we begin, note that these pIC50 values for Autotaxin (Homo sapiens) originate from several publications.
pIC50: −log10 of the molar value.

Below, 5 molecules whose answers are already recorded.
CC(C)c1cc(CNc2ncc(C(=O)N3CCC3C(C)(C)O)cn2)cc(OC(F)(F)F)c1 (stereo not drawn)	> 7.00
O=C(OCc1cc(Cl)cc(Cl)c1)N1CCC2(CCN(C(=O)c3ccc4[nH]nnc4c3)CC2)C1	7.40
CCn1cc(-n2c(Cl)c(Sc3cccc(C(=O)O)n3)c3ccc(Cl)c(F)c32)cn1	> 6.30
O=C(OCc1ccc(OC(F)(F)F)cc1)N1C[C@@H]2CN(C(=O)c3ccc4[nH]nnc4c3F)C[C@H]2C1	7.80
CCCOCC1CN(CC(=O)NC2(CC#N)CC2)C(=O)c2cc(-c3ccc(Cl)cc3)nn21 (stereo not drawn)	6.00 to 7.00

Can you give me pIC50 for all of these, one by one?
1. CC(C)N1CC2(CCN2C(=O)c2cnc(NCc3cc(OC(F)(F)F)cc(C4CC4)c3)nc2)C1
2. CCCCC1CN(CC(=O)N2CCN(C(N)=O)CC2)C(=O)c2cc(-c3ccc(Cl)cc3)nn21 (stereo not drawn)

Solution:
1: > 7.00; 2: 6.00 to 7.00

* * *

The entries that follow carry IC50 values tested on Autotaxin (Homo sapiens), drawn from several published reports.
Answers are plain numbers, in nM.

Cc1cc(OCc2n[nH]c(=O)n2C)c(-c2cc(C(=O)N(C)CC3CC3)ccc2F)cc1Cl	4
O=C(COc1ccccc1-n1cccc1)N1C[C@@H]2CN(C(=O)c3ccc4[nH]nnc4c3)C[C@H]2C1	249
O=C(NCCCn1ccnc1)c1ccc(NCc2cc(Cl)cc(Cl)c2)nn1	89.2
O=C(CCc1ccc(-c2ccccc2)nc1)N1C[C@@H]2CN(C(=O)c3ccc4[nH]nnc4c3)C[C@H]2C1	29
O=C(OCc1ccc(OC(F)F)cc1)N1C[C@@H]2CN(C(=O)c3ccc4[nH]nnc4c3)C[C@H]2C1	9

List the reported IC50 of each compound below.
1. CS(=O)(=O)c1cc(Cl)cc(COC(=O)N2C[C@@H]3CN(C(=O)c4ccc5[nH]nnc5c4)CC[C@H]3C2)c1
2. O=C(CCc1ccc(OC(F)(F)F)c(F)c1)N1C[C@@H]2CN(C(=O)c3ccc4[nH]nnc4c3)C[C@H]2C1

Solution:
1: 49; 2: 10

Please give IC50, item by item, for the list that follows.
1. CC(C)(C)C(=O)Nc1cc(C(F)(F)F)cnc1COC(=O)N1Cc2nc(C(=O)N3CCc4[nH]nnc4C3)oc2C1
2. CS(=O)(=O)c1cc(Cl)cc(COC(=O)N2CCC3(CC2)CN(S(=O)(=O)c2ccc4[nH]c(=O)sc4c2)C3)c1
3. NS(=O)(=O)c1ccc(C(=O)N2C[C@@H]3CN(C(=O)OCc4ccc(OC(F)(F)F)cc4)C[C@@]3(F)C2)cc1 (single isomer, unassigned)

Solution:
[1, 67, 4]

Give IC50 for each listed item.
1. NS(=O)(=O)c1ccc(C(=O)N2C[C@H]3CN(C(=O)OCc4ccc(OC(F)(F)F)cc4)C[C@@H]3C2)c(F)c1
2. Cc1cc(OCc2n[nH]c3nc(OCCO)ncc23)c(C(C)(C)C)cc1C#N
3. Nc1ccc(C(=O)N2CC3(CCN(C(=O)OCc4cc(Cl)cc(Cl)c4)CC3)C2)cc1O
4. CC(C)(Cc1cccc(Cl)c1)C(=O)N1CC[C@@H]2CN(C(=O)c3ccc4[nH]nnc4c3)C[C@@H]2CC1
5. O=C(/C=C/c1ccc(OC(F)F)cc1)N1C[C@H]2CCN(C(=O)c3ccc4[nH]nnc4c3)C[C@@H]2C1 (single isomer, unassigned)
6. Cc1cc(OCc2n[nH]c(=O)n2C)c(-c2cc(C(=O)N3CCCCC3)ccc2F)cc1Cl
7. Cc1cc(OCc2n[nH]c(=O)n2C)c(-c2cccc(S(C)(=O)=O)c2)cc1Cl
8. O=C(c1cc(OCC2CCOCC2)nc(C2CC2)c1)N1C[C@@H]2CN(C(=O)c3ccc4[nH]nnc4c3)C[C@@H]2C1

Solution:
4
9
107
810
19
9
8
14

* * *

Literature compilation of IC50 measurements on Autotaxin (Homo sapiens, UniProt Q13822).
Give bare numbers, in nM.

Previously resolved entries follow.
COc1ccc(C(CCO)Nc2ccc(C(=O)NCc3cc(F)cc(F)c3)nn2)cc1 (centres unmarked)	24.9
COc1cc(C(=O)N2C[C@@H]3[C@H](C2)[C@H]2CN(C(=O)[C@@H]4CCc5[nH]nnc5C4)C[C@@H]32)cc2ccccc12	13
O=C(CCc1c[nH]c(=O)s1)N1C[C@H]2CCN(C(=O)c3cc(OCC4CCOCC4)nc(C4CC4)c3)CC[C@H]2C1	14
O=C(OCc1ccc(OCC(F)(F)F)cc1F)N1CCC2(CC1)CN(C(=O)C1CCc3nn[nH]c3C1)C2 (centres unmarked)	2.5
O=C(c1ccc2[nH]nnc2c1)N1C[C@@H]2[C@H](C1)[C@H]1CN(C(=O)c3cc(OCc4ccccc4)c4cc[nH]c4c3)C[C@@H]21	14
O=C(CCc1ccc(OC(F)(F)F)cc1)N1CCC2(CC1)CN(C(=O)C1CCc3[nH]nnc3C1)C2 (centres unmarked)	110

Field: next compound
Exercise: Using the record for COc1ncccc1-c1cc(Cl)c(C)cc1OCc1ccc(=O)[nH]n1 , report its IC50.
Solution: 32

* * *

Assay read-out pIC50 on Autotaxin (Homo sapiens); records merged from the literature.
Answers are plain numbers, as −log10 of the molar value.

// below: answered compounds
CNC(=O)c1cccc(-c2cc(C#N)c(Cl)cc2OCc2n[nH]c(=O)n2C)c1	6.94
O=C(/C=C/c1ccc(C(F)(F)F)cn1)N1C[C@@H]2CN(C(=O)c3ccc4[nH]nnc4c3)C[C@H]2C1	8.05
O=C(OCc1cc(Cl)cc(Cl)c1)N1C[C@H]2CN(Cc3ccc4[nH]cnc4c3)C[C@H]2C1	4.98

Count: 3. Required value per item: pIC50.
1. CCOc1cc(C(=O)N2C[C@@H]3[C@H]4CN(C(=O)c5ccc6[nH]nnc6c5)C[C@H]4[C@@H]3C2)nc2cc(OC)ccc12
2. O=C(OCc1ccccc1)N1CCc2nc(C(=O)N3CCc4[nH]nnc4C3)cn2CC1
3. Cc1cc(OCc2n[nH]c3cccnc23)c(-c2cc(C(=O)N(C)C)ccc2F)cc1Cl

Solution:
7.72
5.70
7.01

For every listed record, write down its pIC50.
1. O=C(c1ccc2ccc(-c3ccccc3)cc2c1)N1C[C@@H]2[C@H](C1)[C@H]1CN(C(=O)c3ccc4[nH]nnc4c3)C[C@@H]21
2. Cc1cc(OCc2n[nH]c(=O)n2C)c(-c2cccc(C(N)=O)c2)cc1Cl
3. Cc1cc(C(C)(C)C)c(OCc2n[nH]c(=O)n2C)cc1C#N
4. O=C(OCC1C2CC3CC(C2)CC1C3)N1C[C@@H]2CN(C(=O)c3ccc4[nH]nnc4c3)C[C@@H]2C1 (some centres unmarked)
5. O=C(c1cc(OCC2CCOCC2)nc(C2CC2)c1)N1CC[C@@H]2CN(C(=O)c3ccc4[nH]c(=O)oc4c3)C[C@@H]2CC1
6. O=C(c1ccc2[nH]nnc2c1)N1CC2(CCN(c3nnc(-c4ccc(Cl)cc4)s3)CC2)C1
7. O=C(OCc1cc(Cl)cc(Cl)c1)N1C[C@H]2CN(Cc3ccc4[nH]c(=O)oc4c3)C[C@H]2C1
8. Cc1cc(OCc2n[nH]c3nc(OCCO)ccc23)c(C(C)(C)C)cc1Cl

Solution:
[8.10, 6.78, 7.46, 5.38, 7.60, 6.75, 6.27, 4.88]

Exercise: pIC50 lookup needed for CS(=O)(=O)c1ccc(/C=C/C(=O)N2CC[C@@H]3CN(C(=O)c4ccc5[nH]nnc5c4)C[C@@H]3CC2)cc1 , thanks.
Solution: 6.77
